// provenance: patent US12371454B2

- assayed-target: Kras and SOS1 (biotin-tagged human Kras loaded with GDP, His-tagged human SOS1) (Homo sapiens, UniProt P01116, G12D)
- Construct: made in house; host or cells: E. coli (stated for Kras only)
- Sequence (P01116 1-188 isoform P01116-2 G12D): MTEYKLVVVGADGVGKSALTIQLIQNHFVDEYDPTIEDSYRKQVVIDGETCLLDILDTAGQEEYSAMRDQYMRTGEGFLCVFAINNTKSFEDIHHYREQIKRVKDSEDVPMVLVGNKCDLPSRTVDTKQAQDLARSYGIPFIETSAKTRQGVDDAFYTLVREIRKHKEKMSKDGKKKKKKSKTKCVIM
- test-summary: Protein-protein interaction inhibition between Kras and SOS1 (KrasGl2D-SOS PPI) using AlphaScreen
- Assay type: binding
- condition-context: AlphaScreen; biotin-tagged human Kras loaded with GDP, His-tagged human SOS1; read-out: KRAS G12D-SOS PPI IC50
Starred links: 1 amine or outer side, 2 acyl side, 3 side chain; linkers in the order of their positions; H or OH if unused. Positions of bridges follow the written chain, without caps; N, C: chain ends. Non-standard residues stand in square brackets, D forms with d. Residues, ends and D or L forms follow the SMILES beside them. *: point of attachment. hPhe(3,5-F2-4-CF3) = N[C@@H](CCc1cc(F)c(C(F)(F)F)c(F)c1)C(=O)O; hPhe(3-Cl-4-CF3) = N[C@@H](CCc1ccc(C(F)(F)F)c(Cl)c1)C(=O)O; hPhe(3-F,4-CF3) = N[C@@H](CCc1ccc(C(F)(F)F)c(F)c1)C(=O)O; NMePhe(4-CF3) = CN[C@@H](Cc1ccc(C(F)(F)F)cc1)C(=O)O; NEtPhe(4-Me) = CCN[C@@H](Cc1ccc(C)cc1)C(=O)O; NMeAbu(4,4,4-F3) = CN[C@@H](CC(F)(F)F)C(=O)O; X62 = O=C([C@H](Cc1cc(I)ccc1Br)N[*:1])[*:2]; NMePhe(4-F) = CN[C@@H](Cc1ccc(F)cc1)C(=O)O; NMedβ3hAla = C[C@H](CC(=O)[*:2])N(C)[*:1]; NMeY = CN[C@@H](Cc1ccc(O)cc1)C(=O)O; NMeCha = CN[C@@H](CC1CCCCC1)C(=O)O; Hyp = O=C(O)[C@@H]1C[C@@H](O)CN1; NMeChg = CN[C@H](C(=O)O)C1CCCCC1; NMeI = CC[C@H](C)[C@H](NC)C(=O)O; NMeD = CN[C@@H](CC(=O)O)C(=O)O; NMeL = CN[C@@H](CC(C)C)C(=O)O; NMeAbu = CC[C@H](NC)C(=O)O; NMeA = CN[C@@H](C)C(=O)O; NMeAib = CNC(C)(C)C(=O)O; Nle = CCCC[C@H](N)C(=O)O; Piperidide = C1CCN(*)CC1; Pyrrolidide = C1CCN(*)C1; Ac5c = NC1(C(=O)O)CCCC1; Aze = O=C(O)[C@@H]1CCN1; Ac4c = NC1(C(=O)O)CCC1; βAla = NCCC(=O)O; Sar = CNCC(=O)O
Reported IC50 values for a set of molecules
Answer with a number only, understood to be in nM.

Worked set:
molecule	assay-result
CC[C@H](C)[C@@H]1NC(=O)CCNC(=O)[C@H](Cc2ccc(F)cc2)N(C)C(=O)[C@H](C2CCCCC2)N(C)C(=O)C2(CCCC2)NC(=O)[C@@H]2CCCN2C(=O)[C@H](CCc2ccc(C(F)(F)F)c(Cl)c2)NC(=O)CN(C)C(=O)[C@H](CC2CCCCC2)N(C)C(=O)CN(C)C(=O)CN(C)C1=O [Compound 528] (cyclo([Ac5c][NMeChg][NMePhe(4-F)][βAla]I[Sar][Sar][NMeCha][Sar][hPhe(3-Cl-4-CF3)]P))	20
CC[C@H](C)[C@@H]1NC(=O)[C@H](CC(F)(F)F)N(C)C(=O)C[C@@H](C(=O)N2CCCC2)N(C)C(=O)[C@H](C2CCCCC2)N(C)C(=O)C2(CCCC2)NC(=O)[C@@H]2CCCN2C(=O)[C@H](CCc2cc(F)c(C(F)(F)F)c(F)c2)NC(=O)CN(C)C(=O)[C@H](Cc2ccc(C(F)(F)F)cc2)N(C)C(=O)CN(C)C(=O)CN(C)C1=O [Compound 1244] ([NMeAbu(4,4,4-F3)]I[Sar][Sar][NMePhe(4-CF3)][Sar][hPhe(3,5-F2-4-CF3)]P[Ac5c][NMeChg][NMeD]-Pyrrolidide; lactam N-11)	0.63
CC[C@H](C)[C@@H]1NC(=O)[C@H](CC(C)C)N(C)C(=O)C[C@@H](C(=O)N2CCCCC2)N(C)C(=O)[C@H](CC(C)C)N(C)C(=O)C2(CCCC2)NC(=O)[C@@H]2CCCN2C(=O)[C@H](CCc2ccc(C(F)(F)F)c(F)c2)NC(=O)CN(C)C(=O)[C@H](CC2CCCCC2)N(C)C(=O)CN(C)C(=O)CN(C)C1=O [Compound 1501] ([NMeL]I[Sar][Sar][NMeCha][Sar][hPhe(3-F,4-CF3)]P[Ac5c][NMeL][NMeD]-Piperidide; lactam N-11)	14
CCO[C@@H]1C[C@H]2C(=O)NC3(CCC3)C(=O)N(C)[C@@H]([C@@H](C)CC)C(=O)N(C)[C@H](C)CC(=O)N(C)[C@@H](CC(C)C)C(=O)N[C@@H]([C@@H](C)CC)C(=O)N(C)[C@@H](C)C(=O)N3CC[C@H]3C(=O)N(CC)[C@@H](Cc3ccc(C)cc3)C(=O)N(C)CC(=O)N[C@@H](CCc3ccc(C(F)(F)F)c(Cl)c3)C(=O)N2C1 [Compound 626] (cyclo([Ac4c][NMeI][NMedβ3hAla][NMeL]I[NMeA][Aze][NEtPhe(4-Me)][Sar][hPhe(3-Cl-4-CF3)][Hyp](Et)))	2.4

### Prompt Give the reported value of IC50 for this record: CCCC[C@@H]1NC(=O)[C@H](Cc2cc(I)ccc2Br)NC(=O)CN(C)C(=O)[C@H](Cc2ccc(OC)cc2)N(C)C(=O)[C@@H]2CCN2C(=O)[C@H](C)N(C)C(=O)[C@H]([C@@H](C)CC)NC(=O)[C@H](CC)N(C)C(=O)C[C@@H](C(=O)N2CCCCC2)N(C)C(=O)[C@H](CC(C)C)NC(=O)C(C)(C)N(C)C1=O [Compound 1155] ([NMeAbu]I[NMeA][Aze][NMeY](Me)[Sar][X62][Nle][NMeAib]L[NMeD]-Piperidide; lactam N-11)
### Response 170
